Molecular target: Human V1b receptor (Homo sapiens, UniProt P47901)
Sequence (P47901 whole entry): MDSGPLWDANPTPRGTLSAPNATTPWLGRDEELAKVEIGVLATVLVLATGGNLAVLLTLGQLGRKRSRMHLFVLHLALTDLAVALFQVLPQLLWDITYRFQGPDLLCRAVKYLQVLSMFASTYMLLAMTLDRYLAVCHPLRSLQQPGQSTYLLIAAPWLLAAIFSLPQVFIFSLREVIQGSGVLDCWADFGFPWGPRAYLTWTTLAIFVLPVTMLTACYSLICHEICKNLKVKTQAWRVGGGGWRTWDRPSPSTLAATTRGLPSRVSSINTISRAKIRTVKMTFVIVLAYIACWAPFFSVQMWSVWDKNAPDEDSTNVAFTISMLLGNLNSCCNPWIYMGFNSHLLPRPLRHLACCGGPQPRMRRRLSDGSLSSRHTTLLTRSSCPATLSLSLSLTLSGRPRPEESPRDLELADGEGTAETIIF
Test: Binding test for V1b receptor ([3H]AVP displacement, crude membrane preparation)
Parameters: expressed in transfected cells; host or cells: 293FT cells (Invitrogen), transient expression; crude membrane preparation
Conditions: [3H]AVP 0.4 to 1 nmol/L; membranes of 293FT cells transiently expressing human V1b receptor; room temperature, 60 minutes
READOUT: IC50 (nM)

The cases that follow already have their IC50 on record.
CC(C)NC(=O)Cn1c(-c2cccc(S(C)(=O)=O)c2)nn(-c2ccc(CCN3CCOCC3)cc2)c1=O [Ia-1] ... 46
COc1cc(-c2nn(-c3ccc(CN4CCN(C)CC4)cc3)c(=O)n2CC(=O)NC(C)C)ccc1F [Cd-4] ... 863
CC(C)NC(=O)Cn1c(-c2cccc(Cl)c2)nn(-c2ccc(CCN3CCOCC3)c(F)c2)c1=O [Ad-7] ... 3.8
CC(C)NC(=O)Cn1c(-c2cccc(Cl)c2)nn(-c2ccc(CC(C)N3C4CCC3COC4)cc2)c1=O (stereo not shown) [Ad-14] ... 0.54
CC(C)NC(=O)Cn1c(-c2cccc(Cl)c2)nn(-c2ccc(CCN3C4CCC3COC4)cc2)c1=O [Aa-10] ... 4.7

P. COc1cc(-c2nn(-c3ncc(CCN4CCOCC4)cn3)c(=O)n2CC(=O)NC(C)C)ccc1F [Cd-1]
Q. O=C(Cn1c(-c2cccc(Cl)c2)nn(-c2ccc(CCN3CCOCC3)cc2)c1=O)NC1COC1 [Ad-5]
Could you determine which record has the numerically smaller IC50? Candidates: P and Q Pick one; state its label.
Q
